Entries and their Population Apoptotic (%)
# System: Fibroblast
# test: Multiplex assay against human fibroblast
# Type: toxicity, cell-based
# condition.notes: 48 h, 10 µM, compound concentration 10 uM, replicate 2
Give a bare numeral; the unit % is implied.

# molecule, system.name, scale.unit, observed.result
data = [
    ("CN1C(=O)[C@@H](NC(=O)c2cc3ccccc3[nH]2)N=C(c2ccccc2)c2ccccc21 [DEVAZEPIDE]", "Fibroblast", "%", 100),
    ("CC(Cc1ccc(O)c(O)c1)C(C)Cc1ccc(O)c(O)c1 (stereo not given) [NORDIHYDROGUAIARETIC ACID]", "Fibroblast", "%", 100),
    ("c1ccc(-c2oc3ncnc(NC[C@@H]4CCCO4)c3c2-c2ccccc2)cc1", "Fibroblast", "%", 0),
    ("CN(c1cc(C(F)(F)F)nc(OCCC(=O)O)n1)c1cccc2c1CCC2", "Fibroblast", "%", 40),
    ("Oc1cccc(-c2nc(N3CCOCC3)c3oc4ncccc4c3n2)c1 [PI-103]", "Fibroblast", "%", 78),
    ("Cc1ccc(S(=O)(=O)NC2c3ccccc3Oc3ccccc32)cc1", "Fibroblast", "%", 80),
]

Attention now turns to another entry.
## Task Look up and state reported Population Apoptotic (%) for CC(C)[C@H](CO)Nc1nc(Nc2cccc(Cl)c2)c2ncn(C(C)C)c2n1 [PURVALANOLA]
## Result 50

###

# Tested on: Fibroblast
# test: Multiplex assay against human fibroblast
# Format: toxicity, cell-based
# condition.notes: 24 h, 10 µM, compound concentration 10 uM, replicate 1
One threshold, 6%, splits the recorded Population Mitochondria Different-Phenotype (%) values: lower ones are True, equal or higher ones are False.

# compound, classification
measured = [
    ("Oc1cccc(-c2nc(N3CCOCC3)c3oc4ncccc4c3n2)c1 [PI-103]", "False"),
    ("C=CC(=O)Nc1cc(-n2c(=O)ccc3cnc4ccc(-c5ccc(NS(C)(=O)=O)cc5)cc4c32)ccc1C", "True"),
    ("Cc1ccc(NC(=O)Nc2cc(C(F)(F)F)ccc2F)cc1Nc1ccc2c(c1)NC(=O)/C2=C\\c1ccc[nH]1", "True"),
    ("Cc1c(Nc2ccc(S(=O)(=O)N3CCN(C)CC3)cc2F)nc2ccc(Nc3cnn(C4CC4)c3)cn2c1=O", "True"),
    ("CCCCCNC(=N)N/N=C/c1c[nH]c2ccc(OC)cc12.O=C(O)/C=C\\C(=O)O [TEGASEROD MALEATE]", "False"),
    ("CCCc1cc(C)[nH]c(=O)c1CNC(=O)c1cc(-c2ccc(N3CCN(C(C)C)CC3)nc2)cc2c1cnn2C(C)C", "False"),
]

## Task Lab log: compare recorded Population Mitochondria Different-Phenotype (%) with 6%; is it strictly lower for CC[C@H](Nc1ncnc2[nH]cnc12)c1nc2cccc(F)c2c(=O)n1-c1ccccc1 [IDELALISIB] ?
## Result True

###

Recorded Population Normal (%) by entry
# Tested on: HEK-293T
# test: Multiplex assay against HEK293T
# Type: toxicity, cell-based
# condition.notes: human, 24 h, 10 µM, compound concentration 10 uM, replicate 2
Unit % implied. Number only.

# compound, Population Normal (%)
rows = [
    ("NC(=O)c1ccc2nc(-c3ccc(C4(N)CCC4)cc3)c(-c3ccccc3)n2n1 [BAY-1125976]", 96),
]

## Task Identify the reported Population Normal (%) for the following entry. C[C@@H](Oc1cc(-n2cnc3ccc(CN4CCN(C)CC4)cc32)sc1C(N)=O)c1ccccc1C(F)(F)F [GSK-461364]
## Result 94

## Task Please supply the value of reported Population Normal (%) for the item `CCOC(=O)CCNc1cc(N2CCc3ccccc3CC2)nc(-c2ccccn2)n1`
## Result 91
